The measurements presented in this section are drawn from ChEMBL document CHEMBL4251636.

Tested on: HCT-116
assay_comment: Antiproliferative activity against human HCT116 cells after 72 hrs by MTT assay
Type: functional, cell-based
condition: HCT-116, 72 h
measured_metric: pIC50
Please note pIC50 is a logarithmic value: minus log10 of concentration in mol/L. Answer with that number alone.

Exercise: # query: pIC50 of entry CC(=O)c1sc(N/N=C2/C=C(Nc3ccc(Br)cc3)C(Nc3ccc(Br)cc3)=NC2=O)nc1C
Key: 4.88

Exercise: And then CC(=O)c1sc(N/N=C2/C=C(Nc3cccc(Cl)c3)C(Nc3cccc(Cl)c3)=NC2=O)nc1C , what is it?
Key: 4.98

Exercise: Please answer likewise for CC(=O)c1sc(N/N=C2/C=C(Nc3cccc(Br)c3)C(Nc3cccc(Br)c3)=NC2=O)nc1C
Key: 4.65

Exercise: Next up: CC(=O)c1sc(N/N=C2/C=C(Nc3ccc(C)cc3)C(Nc3ccc(C)cc3)=NC2=O)nc1C
Key: 4.28

Exercise: Item: O=c1[nH]cc(F)c(=O)[nH]1 [FLUOROURACIL]
Key: 4.95

Exercise: Follow-up item: CC(=O)c1sc(N/N=C2/C=C(Nc3ccccc3)C(Nc3ccccc3)=NC2=O)nc1C
Key: 4.60

Exercise: Same question for CC(=O)c1sc(N/N=C2/C=C(Nc3ccc(Cl)cc3)C(Nc3ccc(Cl)cc3)=NC2=O)nc1C please.
Key: 5.08

Exercise: Now consider CC(=O)c1sc(N/N=C2/C=C(Nc3ccccc3Cl)C(Nc3ccccc3Cl)=NC2=O)nc1C and answer again.
Key: 5.09

Exercise: Field entry: COc1ccccc1NC1=C/C(=N/Nc2nc(C)c(C(C)=O)s2)C(=O)N=C1Nc1ccccc1OC
Key: 4.07

Exercise: Can you handle CC(=O)c1sc(N/N=C2/C=C(Nc3cccc(F)c3)C(Nc3cccc(F)c3)=NC2=O)nc1C next?
Key: 4.64

====

System: MGC-803
assay_comment: Antiproliferative activity against human MGC803 cells after 72 hrs by MTT assay
Assay type: functional, cell-based
condition: MGC-803, 72 h
measured_metric: pIC50
# pIC50 = -log10(concentration in molar units)

Exercise: // map CC(=O)c1sc(N/N=C2/C=C(Nc3cccc(F)c3)C(Nc3cccc(F)c3)=NC2=O)nc1C to recorded pIC50 (system: MGC-803)
Key: 4.67

Exercise: Could you do the same for O=c1[nH]cc(F)c(=O)[nH]1 , please?
Key: 4.59

Exercise: Please answer likewise for CC(=O)c1sc(N/N=C2/C=C(Nc3ccc(Cl)cc3)C(Nc3ccc(Cl)cc3)=NC2=O)nc1C
Key: 5.07

Exercise: Follow-up entry: COc1ccc(NC2=C/C(=N/Nc3nc(C)c(C(C)=O)s3)C(=O)N=C2Nc2ccc(OC)cc2)cc1
Key: 4.08

Exercise: Another molecule to check: CC(=O)c1sc(N/N=C2/C=C(Nc3cccc(Cl)c3)C(Nc3cccc(Cl)c3)=NC2=O)nc1C
Key: 5.29

Exercise: Can you handle CC(=O)c1sc(N/N=C2/C=C(Nc3ccccc3)C(Nc3ccccc3)=NC2=O)nc1C next?
Key: 4.87

Exercise: And what about the molecule CC(=O)c1sc(N/N=C2/C=C(Nc3cccc(Br)c3)C(Nc3cccc(Br)c3)=NC2=O)nc1C ?
Key: 4.67

Exercise: Check CC(=O)c1sc(N/N=C2/C=C(Nc3ccccc3C)C(Nc3ccccc3C)=NC2=O)nc1C too.
Key: 4.35

Exercise: Try the molecule CC(=O)c1sc(N/N=C2/C=C(Nc3ccc(C)cc3)C(Nc3ccc(C)cc3)=NC2=O)nc1C
Key: 4.12

Exercise: Follow-up item: CC(=O)c1sc(N/N=C2/C=C(Nc3ccccc3Cl)C(Nc3ccccc3Cl)=NC2=O)nc1C
Key: 5.50

Exercise: Another: CC(=O)c1sc(N/N=C2/C=C(Nc3ccc(Br)cc3)C(Nc3ccc(Br)cc3)=NC2=O)nc1C
Key: 5.04

Exercise: Same thing, different molecule: COc1ccccc1NC1=C/C(=N/Nc2nc(C)c(C(C)=O)s2)C(=O)N=C1Nc1ccccc1OC
Key: 4.29

====

Test system: HCT-116
assay_comment: Antiproliferative activity against human HCT116 cells after 72 hrs by MTT assay
Format: functional, cell-based
condition: HCT-116, 72 h
Could you please report measured IC50 for the items listed next?

Exercise: I'd like to know its IC50. The compound in question is COc1ccc(NC2=C/C(=N/Nc3nc(C)c(C(C)=O)s3)C(=O)N=C2Nc2ccc(OC)cc2)cc1
Key: > 128 µM

Exercise: Try CC(=O)c1sc(N/N=C2/C=C(Nc3cccc(C)c3)C(Nc3cccc(C)c3)=NC2=O)nc1C next.
Key: > 128 µM

Exercise: Likewise for CC(=O)c1sc(N/N=C2/C=C(Nc3ccccc3C)C(Nc3ccccc3C)=NC2=O)nc1C ?
Key: > 128 µM

Exercise: Same again, this time with COc1cccc(NC2=C/C(=N/Nc3nc(C)c(C(C)=O)s3)C(=O)N=C2Nc2cccc(OC)c2)c1
Key: > 128 µM
